Molecular target: T1, Recombinant OspAST1 (residues 18–273) from B. burgdorferi B31 (Borrelia burgdorferi B31 (OspA ST1), UniProt P0CL66)
T1 construct: source: tags removed with TEV protease; not shown: deca-histidine, N-terminal, cleaved; SUMO, N-terminal, cleaved
T1 sequence (P0CL66 18-273): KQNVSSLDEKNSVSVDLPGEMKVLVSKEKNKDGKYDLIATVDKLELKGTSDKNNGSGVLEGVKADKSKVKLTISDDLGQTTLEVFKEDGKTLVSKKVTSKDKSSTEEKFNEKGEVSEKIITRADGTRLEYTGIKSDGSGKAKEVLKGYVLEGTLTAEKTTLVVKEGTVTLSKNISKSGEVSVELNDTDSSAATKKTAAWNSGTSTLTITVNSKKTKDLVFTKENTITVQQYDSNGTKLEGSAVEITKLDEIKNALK
Assay: BLI; Octet RED96e; mAb captured on AHC sensors (0.4 µg/mL, 5 min), dipped into non-lipidated OspA 21.58 nM to 0.089 nM (10 min), dissociation 30 min; 0.1% BSA in PBS, 0.01% Tween20; global 1:1 model
Conditions: both partners purified
pKd: −log10 of the molar value.
pKd values for the binders below.
QUANTITY NAME: pKd

INSERT INTO measurements (binder, quantitative_result) VALUES
  ('221-5, recombinant human monoclonal IgG1 (antibody, V domains shown, source: Expi293 cells, transiently transfected with VH and VL plasmids, purified (Protein A)) VH: EVQLVQSGAEVKKPGESLKISCKGSGYSFTSYWIGWVRQMPGKGLEWMGIIYPGDSDTRYSPSFQGQVTISADKSISTAYLQWSSLKASDTAMYYCARHLGIDYFFGMDVWGQGTTVTVSS VL: EIVLTQSPATLSLSPGERATLSCRASQSVSSYLAWYQQKPGQAPRLLIYDASTRDTGIPARFSGSGSGTDFTLTISSLEPEDFAVYYCQHHSNWYTFGQGTKLEIK', 9.28),
  ('221-20, recombinant human monoclonal IgG1 (antibody, V domains shown, source: Expi293 cells, transiently transfected with VH and VL plasmids, purified (Protein A)) VH: EIQLVQSGTEVKKPGESLRISCRVSGYSFTNYWVAWVRQMPGKGLEWMGIIWPGDSDTRYSPSFQGQVTISADKSINTAYLQWSSLKASDTAVYYCARHLGIDYFFGLDVWGQGTTVTVSS VL: EIVLTQSPATLSLSPGERATLSCRASQSVSSYLAWYQQKPGQAPRLLIYDASSRATGIPARFSGSGSGTDFTLTISSLEPEDFAVYYCQHLSNWYTFGQGTNLEIK', 9.43),
  ('223-5, recombinant human monoclonal IgG1 (antibody, V domains shown, source: Expi293 cells, transiently transfected with VH and VL plasmids, purified (Protein A)) VH: EVQLVQSGAEVKKPGESLKISCKGSGYSLTSYWIGWVRQMPGKGLEWMGIIWPGDSDTRYSPSFQGQVTISADKSISTAYLQWSSLKASDTAMYYCARYVTVGAFDFWGQGTMVTVSS VL: AIQLTQSPSSLSASVGDRVTITCRASQGISSALAWYQQKPGKTPKLLIYDVSSLESGVPSRFSGSGCGTDFTLTISSVQPEDFATYYCQQFNSYLWTFGQGTKVEIK', 9.77);
